# System: AncSZ;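 note: 11-residue human phosphosite peptides and single-mutation variants displayed on the E. coli surface, counted by deep sequencing, each peptide's frequency after selection divided by its frequency in the unselected input library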;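 note: frequency after pTyr selection over input frequency; kinase dosed for 20-30% of maximal phosphorylation in three min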
# MEASUREMENT_DESCRIPTION: phosphorylation enrichment, bacterial display (enrichment ratio); higher = better substrate or ligand; peptides without Tyr show the background
// reported phosphorylation enrichment per item
OBSERVABLE: phosphorylation enrichment

input_sequence="PSTYRYERGSR [INPPL1_Y663_P659S]" value_observed=0.718
input_sequence="ETELPYQELQG [TYROBP_Y91_S89L]" value_observed=1.58
input_sequence="YRDALYKFIVD [PHEX_Y250_M253I]" value_observed=1.08
input_sequence="LPENPYHSRPR [NDUFA8_Y142]" value_observed=0.643
input_sequence="RQQEDYLLYKQ [RARRES1_Y159]" value_observed=1.32
input_sequence="CTTTHYNFMCN [TP53_Y234_I232T_YF]" value_observed=0.758
input_sequence="ESFRLYPPVPQ [CYP4B1_Y377]" value_observed=0.62
input_sequence="RFLTRYIFNRE [HLA-DQB1_Y62_V59L_YF]" value_observed=1
input_sequence="LPKEQYLFTKE [AFG3L2_Y614_YF]" value_observed=0.83
input_sequence="NAPNSYGRRLI [CDKN2A_Y44_P48L]" value_observed=0.627
input_sequence="FPPDGYSRHCE [CTNND1_Y213_Y217C_YF]" value_observed=0.784
input_sequence="ANNPLYKEVTS [ITGB3_Y773_A776V]" value_observed=0.695
input_sequence="GIKAAYEAERG [LMNA_Y81_L85R]" value_observed=0.566
input_sequence="EDGRLYAVKCS [PKMYT1_Y136_R140C]" value_observed=0.972
input_sequence="YKEDPYLVVNP [MCM6_Y810_E806K]" value_observed=1.19
input_sequence="CPYNLYAEQLS [HGD_Y40]" value_observed=1.74
input_sequence="ISNATYKQIGL [FLT1_Y199_E201Q]" value_observed=0.667
input_sequence="PFWKLYESVKK [MKI67_Y241]" value_observed=1
input_sequence="TWNPKYTLRSH [STRN3_Y474]" value_observed=0.614
input_sequence="DLDLTYIFPNI [PTEN_Y27_YF]" value_observed=4.58
input_sequence="TSESSYFKSLN [NGEF_Y288_A286S_YF]" value_observed=0.766
input_sequence="RLLVVYRWTQR [HBB_Y36_P37R]" value_observed=1.56
input_sequence="FMCKVYSDPQP [FGFR1_Y280]" value_observed=1.41
input_sequence="QQMGTYGVRAA [ICAM2_Y260_R256Q]" value_observed=0.33
input_sequence="QEKKGYFEDRR [GLUL_Y336]" value_observed=0.907
input_sequence="QEIATYRRLPE [KRT16_Y417_L421P]" value_observed=0.762
input_sequence="FPPISYLNAIS [MVD_Y276]" value_observed=0.813
input_sequence="CGADSYEMEED [EGFR_Y316]" value_observed=1.57
input_sequence="NYNPNYCFAGK [ALK_Y1096_D1091N]" value_observed=1.26
input_sequence="ADRNHYRRFPR [YBX1_Y145_YF]" value_observed=0.8
input_sequence="PYGQWYESHYA [RPS8_Y113_R110G]" value_observed=1.55
input_sequence="EDGCIYPATIA [SMN1_Y109]" value_observed=1.07
input_sequence="AVARPYHIQKW [ACSBG1_Y677_A673V]" value_observed=0.643
input_sequence="DTERIYDDDFF [UBA1_Y560]" value_observed=1.36
input_sequence="GTSLIYWTLFT [G6PC3_Y214]" value_observed=1.82
input_sequence="LVRAFYCERRW [CARD11_Y970_R975W]" value_observed=1.05
input_sequence="SVLVPYEPPEV [TP53_Y220_V217L]" value_observed=1.36
input_sequence="KQELVYPNKKL [OPTN_Y356_T357P]" value_observed=0.576
input_sequence="LFEDCYLLGTS [ASS1_Y87_R86C_YF]" value_observed=2.1
input_sequence="ERSMSYSDESR [SMG1_Y143]" value_observed=0.887
input_sequence="HLQQSYLPRGT [TEX45_Y396]" value_observed=1.04
input_sequence="WYQTKYEELQV [KRT6B_Y360_I365V]" value_observed=1.11
input_sequence="WAAQRYGRELR [BAD_Y110]" value_observed=0.887
input_sequence="QLGLQYSQGLV [EIF2B4_Y214_R209Q]" value_observed=0.995
input_sequence="DEDYLYREELA [POR_Y575]" value_observed=1.61
input_sequence="QRIHNYFEHRF [HCN4_Y554_D553N_YF]" value_observed=0.647
input_sequence="SFPSTYRFERG [INPPL1_Y661_P659S_YF]" value_observed=0.538
input_sequence="RGEAVYSRDCV [XPC_Y676]" value_observed=0.997
input_sequence="AEFGLYGAMVW [VSX2_Y222_R227W_YF]" value_observed=1.26
input_sequence="RWQQLYDTLNA [EIF3M_Y351_Q346R]" value_observed=1.32
input_sequence="LKMLVYLDMSK [LRRC7_Y234]" value_observed=1.36
input_sequence=ENAGFYFQVSA value_observed=1.08
input_sequence="GVRFIYTIDGS [DCX_Y105_YF]" value_observed=1.41
input_sequence="ILQSMYGCDVG [HLA-B_Y123_T118I]" value_observed=0.816
input_sequence="GSRGKYSSGFC [ATM_Y332_R337C]" value_observed=0.495
input_sequence="ASMAKYFASEI [ACADSB_Y372_YF]" value_observed=0.721
input_sequence="LDFNEYFRGLN [HPRT1_Y198_D201G_YF]" value_observed=1.29
input_sequence="LSSEMCVKSYT [F5_Y2149_Y2149C]" value_observed=1.55

// provenance: the supplement of paper PMC10065799
